Provide the recorded self-cleavage for the entries that follow.
B1: CPEB3 Ribozyme (parent)
chain: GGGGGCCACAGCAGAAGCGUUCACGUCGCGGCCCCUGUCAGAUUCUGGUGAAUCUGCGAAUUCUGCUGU

Variants of: B1
Assay: self-cleavage, relative activity (ratio to wild type); higher = more cleavage; co-transcriptional
// no unit, no text: just the number

Q) Report self-cleavage for C22A A23G please.
A) 0.198

Q) Report self-cleavage for U20G U64A please.
A) 0.152

Q) Report self-cleavage for C27A C32U please.
A) 0.543

Q) Report self-cleavage for A23C U26A please.
A) 0.628

Q) Report self-cleavage for U62C C63A please.
A) 0.753

Q) Report self-cleavage for G37U C57G please.
A) 0.209

Q) Report self-cleavage for A15C G31U please.
A) 0.241

Q) Report self-cleavage for U46G C54U please.
A) 0.992

Source: the RNAGym collection of RNA variant scans (doi:10.7554/elife.80360)
